# system-under-test: α1β1γδ subtype of nicotinic acetylcholine receptors (Rattus norvegicus, UniProt P18916+P25108+P25110)
# Sequence (P25109 24-501): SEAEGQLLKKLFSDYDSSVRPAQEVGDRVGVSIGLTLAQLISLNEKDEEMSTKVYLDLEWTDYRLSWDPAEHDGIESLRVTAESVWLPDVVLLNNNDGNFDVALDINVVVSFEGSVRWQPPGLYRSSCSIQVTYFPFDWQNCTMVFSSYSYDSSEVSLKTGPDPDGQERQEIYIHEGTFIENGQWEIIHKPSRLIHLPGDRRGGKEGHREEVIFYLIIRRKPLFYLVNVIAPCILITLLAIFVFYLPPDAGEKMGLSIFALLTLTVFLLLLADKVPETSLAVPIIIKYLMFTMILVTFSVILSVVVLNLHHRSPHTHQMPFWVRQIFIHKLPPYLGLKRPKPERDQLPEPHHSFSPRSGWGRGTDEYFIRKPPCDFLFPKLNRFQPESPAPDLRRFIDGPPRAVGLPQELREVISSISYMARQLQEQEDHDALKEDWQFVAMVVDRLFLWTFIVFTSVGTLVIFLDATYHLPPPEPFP
# Sequence (P25110 22-517): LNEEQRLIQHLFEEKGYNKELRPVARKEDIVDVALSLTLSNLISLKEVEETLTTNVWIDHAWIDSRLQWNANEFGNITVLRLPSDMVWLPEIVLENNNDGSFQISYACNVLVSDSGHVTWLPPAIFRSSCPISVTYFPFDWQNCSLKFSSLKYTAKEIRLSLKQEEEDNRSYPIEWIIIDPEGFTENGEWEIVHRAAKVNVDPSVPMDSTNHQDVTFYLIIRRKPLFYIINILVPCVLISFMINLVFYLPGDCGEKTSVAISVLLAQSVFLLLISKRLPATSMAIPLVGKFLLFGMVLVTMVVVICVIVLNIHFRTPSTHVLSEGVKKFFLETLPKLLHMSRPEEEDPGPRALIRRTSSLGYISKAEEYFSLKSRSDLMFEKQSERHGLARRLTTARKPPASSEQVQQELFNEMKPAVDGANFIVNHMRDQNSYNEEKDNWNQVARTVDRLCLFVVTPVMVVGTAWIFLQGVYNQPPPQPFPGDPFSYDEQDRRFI
# Sequence (P25108 21-457): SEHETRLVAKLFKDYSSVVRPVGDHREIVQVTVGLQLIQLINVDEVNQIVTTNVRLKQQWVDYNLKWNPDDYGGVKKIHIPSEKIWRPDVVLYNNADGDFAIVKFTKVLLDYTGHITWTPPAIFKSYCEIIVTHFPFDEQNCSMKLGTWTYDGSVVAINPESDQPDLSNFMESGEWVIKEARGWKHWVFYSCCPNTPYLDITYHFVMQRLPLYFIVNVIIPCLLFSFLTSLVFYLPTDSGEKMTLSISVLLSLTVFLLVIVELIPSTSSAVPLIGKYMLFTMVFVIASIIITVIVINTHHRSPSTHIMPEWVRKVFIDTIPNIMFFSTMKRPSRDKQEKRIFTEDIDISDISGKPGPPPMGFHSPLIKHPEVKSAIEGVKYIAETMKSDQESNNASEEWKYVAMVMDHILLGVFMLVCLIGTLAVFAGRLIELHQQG
# Sequence (P18916 23-519): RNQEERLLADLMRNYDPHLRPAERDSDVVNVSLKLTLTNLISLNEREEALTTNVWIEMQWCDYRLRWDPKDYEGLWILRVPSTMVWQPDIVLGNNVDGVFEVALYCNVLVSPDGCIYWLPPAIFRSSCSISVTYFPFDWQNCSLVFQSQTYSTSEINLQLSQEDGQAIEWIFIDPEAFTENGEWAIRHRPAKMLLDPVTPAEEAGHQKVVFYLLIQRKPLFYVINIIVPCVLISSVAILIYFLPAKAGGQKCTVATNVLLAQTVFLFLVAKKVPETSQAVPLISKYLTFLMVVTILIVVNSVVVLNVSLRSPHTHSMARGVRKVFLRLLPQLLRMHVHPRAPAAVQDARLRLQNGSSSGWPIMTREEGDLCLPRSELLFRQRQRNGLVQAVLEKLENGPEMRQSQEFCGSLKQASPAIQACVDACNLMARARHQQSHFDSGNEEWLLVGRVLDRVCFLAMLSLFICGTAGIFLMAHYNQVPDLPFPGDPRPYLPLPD
# experiment: biochemical
# Format: binding
# condition-set: read-out: control % of [3H]-α-Bgt binding
quantity-kind: remaining activity at 100 µM (%)
Answers are plain numbers, in %.

Reference set, count: 8
{"compound": "Nc1nccn1CCc1cnccn1", "unit-string": "%", "test-result": 110}
{"compound": "Nc1nccn1CCc1ccc(Cl)cc1", "unit-string": "%", "test-result": 83}
{"compound": "N=C1SCCN1CC(O)c1ccc(Cl)nc1 (stereo not drawn)", "unit-string": "%", "test-result": 72}
{"compound": "Nc1nccn1CCc1cncnc1Cl", "unit-string": "%", "test-result": 87}
{"compound": "COc1ccc(Sc2ccccc2CCn2ccnc2N)cc1", "unit-string": "%", "test-result": 119}
{"compound": "N=c1ccc(Cl)nn1CCc1ccc(Cl)nc1", "unit-string": "%", "test-result": 93}
{"compound": "Nc1nccn1CCc1ccc(O)cc1", "unit-string": "%", "test-result": 81}
{"compound": "Nc1nccn1CCc1ccccn1 [Compound 19, 2-amino-1-[2-(2-pyridyl)ethyl]imidazole]", "unit-string": "%", "test-result": 106}

Please give remaining activity at 100 µM, item by item, for the list that follows.
1. Cc1cn(CCc2ccc(Cl)nc2)c(=N)s1
2. Nc1nccn1CCc1ccncc1 [Compound 20, 2-amino-1-[2-(4-pyridyl)ethyl]imidazole]
3. Nc1nccn1CCc1ccccc1Sc1ccc(O)cc1
4. N=c1ncccn1CCc1ccc(Cl)nc1

Response given:
82
109
107
72

# credit: patent US20030134848A1
